tested on: MCF-7 cells; experiment: In vitro test of cell activity (MCF-7 cells, insulin stimulation, ELISA-One fluorescence); format: cell-based; conditions: Homo sapiens, MCF7, MCF-7 cells; read-out: IC50 p-p70S6K
measurement_label: IC50

Data request: What value of measured IC50 is listed for COc1ncc(-c2ccc3ncc(Cl)c(=O)n3c2)cc1NS(=O)(=O)c1c(C)noc1C [compound 166] ?
Data returned: 0.1 to 0.25 µM

Data request: What value of measured IC50 is listed for COc1ncc(-c2ccc3ncc(Cl)c(=O)n3c2)cc1NS(=O)(=O)c1ccc(F)cc1Cl [compound 135] ?
Data returned: 0.05 to 0.1 µM

Data request: What value of measured IC50 is listed for COc1ncc(-c2ccc3ncc(OC)c(=O)n3c2)cc1NS(=O)(=O)c1ccccc1F [compound 107] ?
Data returned: 0.05 to 0.1 µM

Data request: What value of measured IC50 is listed for COc1ncc(-c2ccc3ncc(Cl)c(=O)n3c2)cc1NS(=O)(=O)c1c(C)n[nH]c1C [compound 163] ?
Data returned: 0.05 to 0.1 µM

Data request: What value of measured IC50 is listed for COc1ncc(-c2ccc3ncc(Cl)c(=O)n3c2)cc1NS(=O)(=O)c1cnc(N)s1 [compound 161] ?
Data returned: > 0.25 µM

Data request: What value of measured IC50 is listed for COc1ncc(-c2ccc3nccc(=O)n3c2)cc1NS(=O)(=O)c1cccc(F)c1 [compound 3] ?
Data returned: 0.05 to 0.1 µM

Data request: What value of measured IC50 is listed for COc1ncc(-c2ccc3ncc(Cl)c(=O)n3c2)cc1NS(=O)(=O)c1ncc(C)s1 [compound 162] ?
Data returned: 0.1 to 0.25 µM

Data request: What value of measured IC50 is listed for COc1ncc(-c2ccc3ncc(N)c(=O)n3c2)cc1NS(=O)(=O)c1ccccc1Cl [compound 91] ?
Data returned: 0.05 to 0.1 µM

Data request: What value of measured IC50 is listed for COc1ncc(-c2ccc3ncc(N)c(=O)n3c2)cc1NS(=O)(=O)c1ccc(F)cc1Cl [compound 88] ?
Data returned: 0.1 to 0.25 µM

Data request: What value of measured IC50 is listed for COc1ncc(-c2ccc3nccc(=O)n3c2)cc1NS(=O)(=O)c1ccc(C)s1 [compound 35] ?
Data returned: ≤ 0.05 µM

Data request: What value of measured IC50 is listed for COc1ncc(-c2ccc3ncc(OC)c(=O)n3c2)cc1NS(=O)(=O)c1ccc(F)cc1C [compound 106] ?
Data returned: 0.05 to 0.1 µM

Data request: What value of measured IC50 is listed for COc1ncc(-c2ccc3ncc(Cl)c(=O)n3c2)cc1NS(=O)(=O)c1cc(F)cc(F)c1 [compound 147] ?
Data returned: 0.05 to 0.1 µM

Data request: What value of measured IC50 is listed for COc1ncc(-c2ccc3ncc(Cl)c(=O)n3c2)cc1NS(=O)(=O)c1ccccc1 [compound 142] ?
Data returned: 0.05 to 0.1 µM

Data request: What value of measured IC50 is listed for COc1ncc(-c2ccc3ncc(Cl)c(=O)n3c2)cc1NS(=O)(=O)c1sccc1C [compound 143] ?
Data returned: ≤ 0.05 µM

Data request: What value of measured IC50 is listed for COc1ncc(-c2ccc3ncc(C)c(=O)n3c2)cc1NS(=O)(=O)c1ccccc1F [compound 84] ?
Data returned: 0.05 to 0.1 µM

Data request: What value of measured IC50 is listed for COc1ncc(-c2ccc3nccc(=O)n3c2)cc1NS(=O)(=O)c1ccc(F)cc1C [compound 26] ?
Data returned: 0.05 to 0.1 µM

Data request: What value of measured IC50 is listed for COc1ncc(-c2ccc3ncc(C)c(=O)n3c2)cc1NS(=O)(=O)c1ccccc1Cl [compound 85] ?
Data returned: 0.05 to 0.1 µM

Data request: What value of measured IC50 is listed for COc1ncc(-c2ccc3nccc(=O)n3c2)cc1NS(=O)(=O)c1ccc(Cl)s1 [compound 36] ?
Data returned: ≤ 0.05 µM

Data request: What value of measured IC50 is listed for COc1ncc(-c2ccc3nccc(=O)n3c2)cc1NS(=O)(=O)c1cnc2ccccc2c1 [compound 38] ?
Data returned: > 0.25 µM

Data request: What value of measured IC50 is listed for COc1ncc(-c2ccc3ncc(F)c(=O)n3c2)cc1NS(=O)(=O)c1c(F)cccc1F [compound 68] ?
Data returned: 0.05 to 0.1 µM

====

Target: mTOR kinase (Homo sapiens)
Construct: made in house
Assay: mTOR kinase assay
Format: biochemical
Conditions: in vitro enzyme activity assay; ATP 100 μM; read-out: mTOR enzyme activity_IC50
Procedure: 2. Experimental Procedures and Methods of the mTOR Kinase Assay The objective was to evaluate the inhibitory effect of the subject samples on the mTOR kinase activity at molecular level. PerkinElmer Envision 2104 Multilabel Reader. […] Each solution was prepared according to the instructions provided in the mTOR Kinase Assay. […] Afterwards, 5 μl of Detection Mix (Eu-anti-phospho-4E-BP1 (Thr37/46) Antibody, the final concentration was 2 nM) was added and incubated for 1 h, and then the mixture was detected. […]
pIC50: −log10 of the molar value.
Provide the recorded pIC50 for the entries that follow.

Data request: What value of measured pIC50 is listed for COc1ncc(-c2ccc3nccc(=O)n3c2)cc1NS(=O)(=O)c1ccc(F)cc1C [compound 26] ?
Data returned: 7.30 to 8.00

Data request: What value of measured pIC50 is listed for COc1ncc(-c2ccc3nccc(=O)n3c2)cc1NS(=O)(=O)c1ccccc1Cl [compound 30] ?
Data returned: 7.30 to 8.00

Data request: What value of measured pIC50 is listed for COc1ncc(-c2ccc3ncc(F)c(=O)n3c2)cc1NS(=O)(=O)c1ccc(F)cc1F [compound 61] ?
Data returned: ≥ 9.00

Data request: What value of measured pIC50 is listed for COc1ncc(-c2ccc3ncc(C)c(=O)n3c2)cc1NS(=O)(=O)c1ccc(F)cc1Cl [compound 83] ?
Data returned: 8.00 to 9.00

Data request: What value of measured pIC50 is listed for COc1ncc(-c2ccc3ncc(Cl)c(=O)n3c2)cc1NS(=O)(=O)c1sccc1Cl [compound 150] ?
Data returned: 8.00 to 9.00

Data request: What value of measured pIC50 is listed for COc1ncc(-c2ccc3nccc(=O)n3c2)cc1NS(=O)(=O)c1ccc(C)cc1F [compound 28] ?
Data returned: 7.30 to 8.00

Data request: What value of measured pIC50 is listed for COc1ncc(-c2ccc3ncc(Cl)c(=O)n3c2)cc1NS(=O)(=O)c1ccc(F)cc1F [compound 132] ?
Data returned: 8.00 to 9.00

Data request: What value of measured pIC50 is listed for COc1ncc(-c2ccc3ncc(C)c(=O)n3c2)cc1NS(=O)(=O)c1ccc(F)cc1F [compound 81] ?
Data returned: 8.00 to 9.00

====

tested on: MCF-7 cells; experiment: In vitro test of cell activity (MCF-7 cells, insulin stimulation, ELISA-One fluorescence); type: cell-based; conditions: Homo sapiens, MCF7, MCF-7 cells; read-out: IC50 p-p70S6K
pIC50: −log10 of the molar value.
Provide the recorded pIC50 for the entries that follow.

Data request: What value of measured pIC50 is listed for "COc1ncc(-c2ccc3nccc(=O)n3c2)cc1NS(=O)(=O)c1ccc(F)cc1" ?
Data returned: 6.60 to 7.00

Data request: What value of measured pIC50 is listed for "COc1ncc(-c2ccc3ncc(Cl)c(=O)n3c2)cc1NS(=O)(=O)c1ccc(F)cc1F" ?
Data returned: 6.60 to 7.00

Data request: What value of measured pIC50 is listed for "COc1ncc(-c2ccc3nccc(=O)n3c2)cc1NS(=O)(=O)c1ccc(C#N)cc1" ?
Data returned: 6.60 to 7.00

Data request: What value of measured pIC50 is listed for "COc1ncc(-c2ccc3ncc(N)c(=O)n3c2)cc1NS(=O)(=O)c1ccc(F)cc1C" ?
Data returned: 6.60 to 7.00

Data request: What value of measured pIC50 is listed for "COc1ncc(-c2ccc3nccc(=O)n3c2)cc1NS(=O)(=O)c1sccc1C" ?
Data returned: 6.60 to 7.00

Data request: What value of measured pIC50 is listed for "COc1ncc(-c2ccc3ncc(N)c(=O)n3c2)cc1NS(=O)(=O)c1ccccc1F" ?
Data returned: 6.60 to 7.00

Data request: What value of measured pIC50 is listed for "COc1ncc(-c2ccc3ncc(C)c(=O)n3c2)cc1NS(=O)(=O)c1ccc(F)cc1F" ?
Data returned: 6.60 to 7.00

Data request: What value of measured pIC50 is listed for "COc1ncc(-c2ccc3ncc(F)c(=O)n3c2)cc1NS(=O)(=O)c1cccc(F)c1" ?
Data returned: ≥ 7.30

Data request: What value of measured pIC50 is listed for "COc1ncc(-c2ccc3ncc(F)c(=O)n3c2)cc1NS(=O)(=O)c1ccc(C(F)(F)F)cc1" ?
Data returned: 7.00 to 7.30

Data request: What value of measured pIC50 is listed for "COc1ncc(-c2ccc3ncc(Cl)c(=O)n3c2)cc1NS(=O)(=O)c1sc(C)nc1C" ?
Data returned: ≥ 7.30

Data request: What value of measured pIC50 is listed for "COc1ncc(-c2ccc3ncc(F)c(=O)n3c2)cc1NS(=O)(=O)c1ccc(F)cc1Cl" ?
Data returned: 7.00 to 7.30

Data request: What value of measured pIC50 is listed for "COc1ncc(-c2ccc3ncc(OC)c(=O)n3c2)cc1NS(=O)(=O)c1ccc(Cl)s1" ?
Data returned: ≥ 7.30

Data request: What value of measured pIC50 is listed for "COCCOc1cnc2ccc(-c3cnc(OC)c(NS(=O)(=O)c4sc(C)nc4C)c3)cn2c1=O" ?
Data returned: ≥ 7.30

Data request: What value of measured pIC50 is listed for "COc1ncc(-c2ccc3ncc(OC)c(=O)n3c2)cc1NS(=O)(=O)c1ccc(F)cc1Cl" ?
Data returned: ≥ 7.30

Data request: What value of measured pIC50 is listed for "COc1ncc(-c2ccc3ncc(Cl)c(=O)n3c2)cc1NS(=O)(=O)c1c(Cl)cccc1Cl" ?
Data returned: ≥ 7.30
